B1: Hairpin Ribozyme (parent)
chain: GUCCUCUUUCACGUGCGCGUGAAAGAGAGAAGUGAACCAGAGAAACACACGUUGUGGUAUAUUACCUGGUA

# Variants of: B1
# run_description: self-cleavage, relative activity (ratio to wild type); higher = more cleavage; co-transcriptional
self-cleavage values by entry
Could you respond with only the numeric value?

As a guide, the following entries are already answered.
IN: # lookup: self-cleavage of GUCCUCUUUCACGUGCGCGUGAAAGAGAGAAGUGAACCAGAGCAACACACGUUGUGGUAUAUUACCUGCUA [A43C G69C]
OUT: 0.196

IN: # lookup: self-cleavage of GUCCUCUUUCACGUGCGCGUGAAAGAGAGAAGUGAACCAGAGAAACACACGUUGUGGCAUCUUACCUGGUA [U58C A61C]
OUT: 0.145

IN: # lookup: self-cleavage of GUCCUCUUUCACGUGCGCGUGGAAGAGAGAAGUGAACCAGAGAAAAACACGUUGUGGUAUAUUACCUGGUA [A22G C46A]
OUT: 0.171

***
IN: # lookup: self-cleavage of GUCCUCUUUCACAUGCGCGUGAAAGAGAGAAGUGAACCAGAGAAACACACGCUGUGGUAUAUUACCUGGUA [G13A U52C]
OUT: 0.625

IN: # lookup: self-cleavage of GUCCUGUUUCACGUGCGCGUGAAACAGAGAAGUGAACCAGAGAAACACACGUUGUGGUAUAUUACCUGGUA [C6G G25C]
OUT: 0.744

IN: # lookup: self-cleavage of GUCCUCUUUCACGUGCGCGUGGACGAGAGAAGUGAACCAGAGAAACACACGUUGUGGUAUAUUACCUGGUA [A22G A24C]
OUT: 0.705

IN: # lookup: self-cleavage of GUCCUCUUUCACCUGCGCGUGAAAGAGAGAAGUGAACCAGAGAAACAGACGUUGUGGUAUAUUACCUGGUA [G13C C48G]
OUT: 0.102

IN: # lookup: self-cleavage of GUCCUCUUUCACCGGCGCGUGAAAGAGAGAAGUGAACCAGAGAAACACACGUUGUGGUAUAUUACCUGGUA [G13C U14G]
OUT: 0.688
